Entry source: patent US20230322761A1

# target: BTK (Homo sapiens, UniProt Q06187)
# Construct: endogenous in cells; host or cells: TMD-8 cells
# Sequence (Q06187 whole entry): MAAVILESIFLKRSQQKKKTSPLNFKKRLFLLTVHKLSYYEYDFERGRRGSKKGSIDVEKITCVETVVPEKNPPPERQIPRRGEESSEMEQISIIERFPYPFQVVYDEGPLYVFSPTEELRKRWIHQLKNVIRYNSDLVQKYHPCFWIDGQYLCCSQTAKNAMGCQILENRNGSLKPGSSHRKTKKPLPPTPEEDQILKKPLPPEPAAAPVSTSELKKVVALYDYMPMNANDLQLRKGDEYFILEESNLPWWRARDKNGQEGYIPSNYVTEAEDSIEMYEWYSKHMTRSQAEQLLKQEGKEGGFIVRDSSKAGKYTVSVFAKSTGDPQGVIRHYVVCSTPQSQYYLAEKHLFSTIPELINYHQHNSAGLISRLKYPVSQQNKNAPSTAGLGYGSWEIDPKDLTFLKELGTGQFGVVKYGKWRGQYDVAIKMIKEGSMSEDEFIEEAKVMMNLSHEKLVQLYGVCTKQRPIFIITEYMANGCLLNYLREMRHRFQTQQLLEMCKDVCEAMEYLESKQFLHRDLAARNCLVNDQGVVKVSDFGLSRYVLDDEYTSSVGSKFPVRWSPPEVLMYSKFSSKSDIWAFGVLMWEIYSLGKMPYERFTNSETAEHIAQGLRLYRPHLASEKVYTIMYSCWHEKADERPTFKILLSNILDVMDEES
# measurement-description: BTK degradation in TMD-8 cells, HTRF assay after 6 h treatment
# Type: cell-based
# stated-conditions: IC50 (DC50) of BTK degradation
readout-type: log10(DC50) (log10 of the value in nM)
# log10 transformed; quantity=DC50; unit=nM

The examples below pair each entry with its known result.
Input: # return recorded log10(DC50) for input Cc1nc(CCN2CCN(c3ccc(-c4cnc5[nH]nc(-c6ccc([C@@H](C)NC(=O)c7noc(C(C)(C)C)n7)c(C)c6F)c5c4)cc3)CC2)ccc1C1CCC(=O)NC1=O (stereo partly shown)
Output: 0.49

Input: Provide measured log10(DC50) value, entry: Cc1cc(-c2n[nH]c3ncc(-c4ccc(CCN5CCC(c6ccc([C@@H]7CCC(=O)NC7=O)cc6)CC5)cc4)cc23)ccc1CNC(=O)c1nc(C(C)(C)C)no1
Output: 0.97

Input: Quick one: give measured log10(DC50) for C[C@@H](NC(=O)c1noc(C(C)(C)C)n1)c1ccc(-c2n[nH]c3ncc(-c4ccc(N5CCN(CC6CCN(c7ccc(N8CCC(=O)NC8=O)cc7)CC6)CC5)nc4)cc23)cc1CO
Output: 0.83

Input: Look up and state reported log10(DC50) for Cc1cc(-c2n[nH]c3ncc(-c4ccc(C5CCN(CCCOc6ccc(NC7CCC(=O)NC7=O)c(C)c6)CC5)cc4)cc23)ccc1CNC(=O)c1nc(C(C)(C)C)no1 (stereo not shown)
Output: 0.66

Input: Answer with reported log10(DC50) of Cc1cc(-c2n[nH]c3ncc(-c4ccc(N5CCN(CCc6ccc(OC7CCC(=O)NC7=O)cc6)CC5)cc4)cc23)ccc1[C@@H](C)NC(=O)c1noc(C(C)(C)C)n1 (stereo partly shown)
Output: 1.15

Input: Determine from records and report log10(DC50) for Cc1cc(-c2n[nH]c3ncc(-c4ccc(C5CCN(CCC6CCN(c7ccc(N8CCC(=O)NC8=O)c(Cl)c7)CC6)CC5)cc4)cc23)ccc1CNC(=O)c1nc(C(C)(C)C)no1
Output: 0.61

More entries:
Input: Give a short answer stating reported log10(DC50) for Cc1cc(-c2n[nH]c3ncc(-c4ccc(C5CCN(CC6CCN(c7ccc(N8CCC(=O)NC8=O)cc7)CC6)CC5)cn4)cc23)ccc1[C@@H](C)NC(=O)c1noc(C(C)(C)C)n1 .
Output: 0.08

Input: // Input: Cc1cc(-c2n[nH]c3ncc(-c4ccc(N5CCN(CCc6ccc(C7CCC(=O)NC7=O)c(C)n6)CC5)cc4)cc23)ccc1[C@@H](C)NC(=O)c1nc(C(C)(C)C)no1 (stereo partly shown) . Output its log10(DC50) only.
Output: 0.33

Input: Identify log10(DC50) associated with the molecule Cc1cc(-c2n[nH]c3ncc(-c4ccc(N5CCN(CC6CCN(c7ccc(N8CCC(=O)NC8=O)cc7)CC6)CC5)cc4)cc23)ccc1CNC(=O)c1noc(C(C)(C)C(F)(F)F)n1
Output: 0.85

====

# target: BTK (Homo sapiens, UniProt Q06187)
# Construct: endogenous in cells; host or cells: TMD-8 cells
# measurement-description: BTK degradation in TMD-8 cells, HTRF assay after 6 h treatment
# Format: cell-based
# stated-conditions: IC50 (DC50) of BTK degradation
# Experimental: TMD-8 cells are treated with compounds diluted in 0.2% DMSO, dilution is done according to the following protocol: (1) make 500× stock solution in DMSO from 1 mM by 6-fold dilution, total 8 doses were included; (2) make 2× solution in cell culture medium by transferring 0.5 μl 500× stock solution into 125 μl medium; (3) 15 μl of 2× solution is added to cells and incubate for 6 h. […]
// assign criterion met if DC50 falls strictly below 5 nM, else criterion not met (ties count as criterion not met)

Sample answers from the record:
Input: I wonder whether Cc1cc(-c2n[nH]c3ncc(-c4ccc(C5CCN(CCC6CCN(c7ccc(N8CCC(=O)NC8=O)cc7)CC6)CC5)cc4)cc23)ccc1CNC(=O)c1nc(C(C)(C)C)no1 has DC50 below 5 nM. Can you tell?
Output: criterion met

Input: Consider Cc1cc(-c2n[nH]c3ncc(-c4ccc(N5CC6CC5CN6CCc5ccc(C6CCC(=O)NC6=O)c(C)n5)cn4)cc23)ccc1[C@@H](C)NC(=O)c1noc(C(C)(C)C)n1 (some centres unmarked) . Does its DC50 lie strictly below 5 nM?
Output: criterion met

// next entry
Input: Please indicate whether the reported DC50 of Cc1cc(-c2n[nH]c3ncc(-c4ccc(N5CCN(CCc6ccc(C7CCC(=O)NC7=O)c(F)c6)CC5)cc4)cc23)ccc1[C@@H](C)NC(=O)c1nc(C(C)(C)C)no1 (some centres unmarked) is strictly below 5 nM.
Output: criterion met

====

# target: BTK (Homo sapiens, UniProt Q06187)
# Construct: endogenous in cells; host or cells: TMD-8 cells
# measurement-description: BTK degradation in TMD-8 cells, HTRF assay after 6 h treatment
# Format: cell-based
# stated-conditions: IC50 (DC50) of BTK degradation
Listed next: entries and their corresponding log10 DC50.
Base-10 log of DC50, unit nM.

Input: Determine its reported log10 DC50: Cc1cc(-c2n[nH]c3ncc(-c4ccc(C5(F)CCN(CC6CCN(c7ccc(N8CCC(=O)NC8=O)cc7)CC6)CC5)cn4)cc23)ccc1[C@@H](C)NC(=O)c1nc(C(C)(C)C)no1
Output: -0.13

Next:
Input: Entry Cc1cc(-c2n[nH]c3ncc(-c4ccc(N5CC6CN(CCc7ccc(C8CCC(=O)NC8=O)cc7)CC6C5)cn4)cc23)ccc1[C@@H](C)NC(=O)c1noc(C(C)(C)C)n1 (stereo partly shown) needs its log10 DC50 filled in; supply it.
Output: 0.23

Input: Note log10 DC50 for the compound shown: Cc1cc(CCN2CCN(c3ccc(-c4cnc5[nH]nc(-c6ccc([C@@H](C)NC(=O)c7nc(C(C)(C)C)no7)c(C)c6)c5c4)cc3)CC2)ccc1C1CCC(=O)NC1=O (stereo partly shown)
Output: 0.86

Input: Give reported log10 DC50 value for Cc1cc(-c2n[nH]c3ncc(-c4ccc(C5(F)CCN(CC6CCN(c7ccc(N8CCC(=O)NC8=O)cc7)CC6)CC5)cc4)cc23)ccc1[C@@H](C)NC(=O)c1nc(C(C)(C)C)no1
Output: 0.72

Input: Identify the reported log10 DC50 for the following entry. Cc1cc(-c2n[nH]c3ncc(-c4ccc(C5CCN(CC6CCN(c7ccc(N8CCC(=O)NC8=O)cc7)CC6)CC5)cc4)cc23)c(F)cc1CNC(=O)c1nc(C(C)(C)C)no1
Output: 0.59

Input: Return log10 DC50 (reported value) for this compound: Cc1cc(-c2n[nH]c3ncc(-c4ccc(N5CCN(CCc6ccc7c(c6)C[C@@]6(CC(=O)NC6=O)C7)CC5)cc4)cc23)ccc1[C@@H](C)NC(=O)c1nc(C(C)(C)C)no1
Output: 1.73

Input: Query log10 DC50 for Cc1cc(-c2n[nH]c3ncc(-c4ccc(N5CCN(CCCOc6ccc(C7CCC(=O)NC7=O)c(F)c6)CC5)cc4)cc23)ccc1[C@@H](C)NC(=O)c1noc(C(C)(C)C)n1 (stereo partly shown)
Output: 0.60

Input: Supply reported log10 DC50 belonging to this compound: COc1cc(N2CCC(=O)NC2=O)ccc1N1CCC(CN2CCN(c3ccc(-c4cnc5[nH]nc(-c6ccc([C@@H](C)NC(=O)c7noc(C(C)(C)C)n7)c(C)c6)c5c4)cc3)CC2)CC1
Output: 0.55

Input: Look up log10 DC50 of Cc1cc(-c2n[nH]c3ncc(-c4ccc(N5CCN(CC6CCN(c7ccc(N8CCC(=O)NC8=O)cc7)CC6)CC5)cc4)cc23)ccc1CNC(=O)c1cnc(C(C)(C)C)s1 and report it.
Output: 1.12

Input: Give a short answer stating reported log10 DC50 for Cc1cc(-c2n[nH]c3ncc(-c4ccc(C5CCN(CCc6ccc([C@H]7CCC(=O)NC7=O)cc6)CC5)nc4)cc23)ccc1[C@@H](C)NC(=O)c1noc(C(C)(C)C)n1 .
Output: 0.01

====

compounds and their reported DC50
# target: BTK (Homo sapiens)
# Construct: endogenous in cells; host or cells: TMD-8 cells
# measurement-description: BTK degradation in TMD-8 cells, HTRF assay after 6 h treatment
# Format: cell-based
# stated-conditions: IC50 (DC50) of BTK degradation
Entry rule: numbers only, all in nM.

Please review the following examples before continuing.
Input: Please give measured DC50 of the following entry: Cc1cc(-c2n[nH]c3ncc(-c4ccc(N5CCN(CCc6ccc(C7CCC(=O)NC7=O)c(C)n6)CC5)cn4)cc23)ccc1[C@@H](C)NC(=O)c1noc(C(C)(C)C)n1 (some centres unmarked)
Output: 2.13

Input: Name the recorded DC50 of the item Cc1cc(-c2n[nH]c3ncc(-c4ccc(N5CCN(CCc6ccc(C7CCC(=O)NC7=O)cn6)CC5)cc4)cc23)ccc1[C@@H](C)NC(=O)c1noc(C(C)(C)C)n1 (some centres unmarked) in your answer.
Output: 0.959

Input: Indicate its recorded DC50; the compound in question is Cc1cc(-c2n[nH]c3ncc(-c4ccc(C5CCN(CCc6ccc(C7CCC(=O)NC7=O)cc6)CC5)cc4)cc23)ccc1[C@@H](C)NC(=O)c1noc(C(C)(C)C)n1 (some centres unmarked)
Output: 3.93

# input for lookup
Input: Fill in DC50 for record Cc1cc(-c2n[nH]c3ncc(-c4ccc(N5CCN(CCc6ccc(C7CCC(=O)NC7=O)cc6)CC5)cn4)cc23)ccc1CNC(=O)c1noc(C(C)(C)C)n1 (centres unmarked)
Output: 1.31
